target: α4β2-containing receptor subtype (Rattus norvegicus, UniProt P09483+P12390); construct: Striata from two rats were dissected, pooled, and homogenized; from tissue; host or cells: rat striatal membranes; test: [3H]-NIC binding assay, rat striatal membranes; settings: compound 1 μM; 3 nM [3H]-NIC; mean ± S.E.M of 3 experiments
Sequence (P09483 31-630): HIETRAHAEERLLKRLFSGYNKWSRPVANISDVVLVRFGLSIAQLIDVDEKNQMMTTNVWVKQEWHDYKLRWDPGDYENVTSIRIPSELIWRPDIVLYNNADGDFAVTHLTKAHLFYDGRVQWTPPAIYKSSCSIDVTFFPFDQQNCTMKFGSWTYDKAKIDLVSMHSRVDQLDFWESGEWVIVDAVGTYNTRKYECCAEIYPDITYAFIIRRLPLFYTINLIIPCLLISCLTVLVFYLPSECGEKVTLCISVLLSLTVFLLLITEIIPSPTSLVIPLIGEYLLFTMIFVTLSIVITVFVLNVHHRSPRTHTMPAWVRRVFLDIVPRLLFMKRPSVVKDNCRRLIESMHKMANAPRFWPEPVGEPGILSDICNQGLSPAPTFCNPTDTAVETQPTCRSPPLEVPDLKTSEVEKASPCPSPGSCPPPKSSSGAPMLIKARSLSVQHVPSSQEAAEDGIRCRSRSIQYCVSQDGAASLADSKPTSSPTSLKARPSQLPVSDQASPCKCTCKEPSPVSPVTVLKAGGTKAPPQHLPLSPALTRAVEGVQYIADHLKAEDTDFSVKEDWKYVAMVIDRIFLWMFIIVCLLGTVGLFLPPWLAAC
Sequence (P12390 25-500): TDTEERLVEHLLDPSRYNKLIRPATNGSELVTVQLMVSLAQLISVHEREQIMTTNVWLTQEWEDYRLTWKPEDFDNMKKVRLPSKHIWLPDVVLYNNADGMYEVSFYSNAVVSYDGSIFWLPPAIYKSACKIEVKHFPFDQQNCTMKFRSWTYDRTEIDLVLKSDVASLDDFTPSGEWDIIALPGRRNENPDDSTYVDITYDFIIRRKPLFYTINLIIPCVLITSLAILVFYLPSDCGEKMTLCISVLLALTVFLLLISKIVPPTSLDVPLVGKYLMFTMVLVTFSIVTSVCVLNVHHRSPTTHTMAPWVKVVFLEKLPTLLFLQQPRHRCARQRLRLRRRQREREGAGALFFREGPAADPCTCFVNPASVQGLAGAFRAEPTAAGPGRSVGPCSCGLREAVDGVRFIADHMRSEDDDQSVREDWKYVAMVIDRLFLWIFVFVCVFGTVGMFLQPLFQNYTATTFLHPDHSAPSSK
Readout label: Specific binding of [3H]-NIC in the presence of compound

Task: Tell me the measured Specific binding of [3H]-NIC in the presence of compound of CCCCCCCCCCCC[n+]1cccc2c1CCC1CCN(C)C21 (stereo not shown) , please.
Result: 43.7 ± 4.5 fmol/mg of protein

Task: Look at this molecule and give its reported Specific binding of [3H]-NIC in the presence of compound. CCCCCCCC[n+]1ccc2c(c1)[C@@H]1[C@H](CC2)CCN1C.[I-] (relative stereo)
Result: 44.5 ± 0.4 fmol/mg of protein

Task: What does the record list as Specific binding of [3H]-NIC in the presence of compound for CCCCCCCCCCC[n+]1cccc2c1CCC1CCN(C)C21 (stereo not shown) ?
Result: 56.1 ± 0.6 fmol/mg of protein

Task: Can you share its Specific binding of [3H]-NIC in the presence of compound? I mean this molecule: CCCCCCCC[n+]1cccc2c1CCC1CCN(C)C21 (stereo not shown)
Result: 50.5 ± 1.2 fmol/mg of protein

Task: Requested read-out: Specific binding of [3H]-NIC in the presence of compound. Entry: CCCCCCCCCCC[n+]1ccc2c(c1)[C@@H]1[C@H](CC2)CCN1C.[I-] (relative stereo)
Result: 51.3 ± 2.0 fmol/mg of protein

Task: Entry CCCCCCCCCCCC[n+]1ccc2c(c1)[C@@H]1[C@H](CC2)CCN1C.[I-] (relative stereo) has what Specific binding of [3H]-NIC in the presence of compound?
Result: 49.5 ± 0.7 fmol/mg of protein

Task: Endpoint output: Specific binding of [3H]-NIC in the presence of compound of CCCCCCCCC[n+]1ccc2c(c1)[C@@H]1[C@H](CC2)CCN1C.[I-] (relative stereo) . Value?
Result: 49.8 ± 3.6 fmol/mg of protein

Task: I'd like to know its Specific binding of [3H]-NIC in the presence of compound. The molecule in question is CCCCCCCCCC[n+]1cccc2c1CCC1CCN(C)C21 (stereo not shown)
Result: 54.9 ± 0.7 fmol/mg of protein

Task: Tell me the measured Specific binding of [3H]-NIC in the presence of compound of CCCCCCCCCC[n+]1ccc2c(c1)[C@@H]1[C@H](CC2)CCN1C.[I-] (relative stereo) , please.
Result: 50.3 ± 3.7 fmol/mg of protein

Task: Any idea what Specific binding of [3H]-NIC in the presence of compound was measured for CCCCCCCCC[n+]1cccc2c1CCC1CCN(C)C21 (stereo not shown) ?
Result: 49.6 ± 1.2 fmol/mg of protein
